assay: soluble on expression in E. coli; label from the status in PepcDB or PDB records
measurementLabel: soluble on expression in E. coli

Examples with answers:
sequenceInput | soluble on expression in E. coli
MHIKIDDLTGRQVVSLVNEHLHSMTLMSPPESIHALGLEKLRGPEITFWSAWEGDELAGCGALKELDTRHGEIKSMRTSASHLRKGVAKQVLQHIIEEAEKRGYERLSLETGSMASFEPARKLYESFGFQYCEPFADYGEDPNSVFMTKKLLEHHHHHH | soluble
GSHMKNSVSVDLPGSMKVLVSKSSNADGKYDLIATVDALELSGTSDKNNGSGVLEGVKADASKVKLTISDDLGQTTLEVFKSDGSTLVSKKVTSKDKSSTEEKFNEKGELSEKKITRADKSSTEEKFNEKGELSEKKITRADKSSTEEKFNEKGELSEKKITRADKSSTEEKFNEKGEVSEKIITRADGTRLEYTGIKSDGSGKAKEVLKGYVLEGTLTAEKTTLVVKEGTVTLSKNISKSGEVSVELNDTDSSAATKKTAAWNSGTSTLTITVNSKKTKDLVFTSSNTITVQQYDSNGTSLEGSAVEITKLDEIKNALK | soluble
MGSDKIHHHHHHMSIMNSLLQQKETVVKGWLTYYVSVDDPYVFALKDDHRLMDETGFVLENLFIGMTEDLAKMNTFARELGKAQFITSLGISRILFHIRLLEEFLLDYASEINAECNNYRELYLFSIKLHQVFSSFTQHLIEGYTLATEQLVQQKENQIIKSSTKLIWLAEKVFLLPLIGKITDERAKQITETALFETCEQPVNYLIIDLSGVQFDSANIGEYIEHFFSSLKLVGVTPIITGMQPETAKIMVQANLTEQKGIKTFATLRQATKSLIKEKEARNAIK | not soluble
MIYKSIAERLRIRLNSADFTLNSLLPGEKKLAEEFAVSRMTIRKAIDLLVAWGLVVRRHGSGTYLVRKDVLHQTASLTGLVEVLKRQGKTVTSQVLIFEIMPAPPAIASQLRIQINEQIYFSRRVRFVEGKPLMLEDSYMPVKLFRNLSLQHLEGSKFEYIEQECGILIGGNYESLTPVLADRLLARQMKVAEHTPLLRITSLSYSESGEFLNYSVMFRNASEYQVEYHLRRLHPEKS | soluble
MDIQTRKSILWDAFEELKTRWGADEKFLERVEEEELTVDGLPESKVRDLIELREKYQLDELEFLFIVGTAVGLYQGQKQVKEILQRRMSALNEFVSSLVGREL | not soluble
MVDSYDDSLDGEKSKTQVKRELHALVDLGERLTTLKADVLAKLPLTDALRKALAEAPKHTANIARKRHILFIGKLMRDQDQEAILVLLDQLDASTRQYNERFHNLERWRDRLIAGDDADLEKFVIEYPDADRQQLRSLIRQAQHEVARNKPPATSRKIFKYIRELDELQ | soluble

get_value(item= MAHHHHHHSLKCILLNQAEELPIEFLPKDGVYGKGKLFDSRNMEIENFTESDILQDARRAAEAHRRARYRVQSIVRPGITLLEIVRSIEDSTRTLLKGERNNGIGFPAGMSMNSCAAHYTVNPGEQDIVLKEDDVLKIDFGTHSDGRIMDSAFTVAFKENLEPLLVAAREGTETGIKSLGVDVRVCDIGRDINEVISSYEVEIGGRMWPIRPISDLHGHSISQFRIHGGISIPAVNNRDTTRIKGDSFYAVETFATTGKGSIDDRPPCSHFVLNTYKSRKLFNKDLIKVYEFVKDSLGTLPFSPRHLDYYGLVKGGSLKSVNLLTMMGLLTPYPPLNDIDGCKVAQFEHTVYLSEHGKEVLTRGDDY , readout=soluble on expression in E. coli) returns not soluble

get_value(item= MSLQGLWIYPEDTEVLGVACKSLLKALTPRYQKVALFSPISGGCESLEECESLNPLEFHSAISKQKALELASTAQEELLFETILKRYDELQSTHDFVINLGCAPKFFLNAPLDLNTILAKHLNASVVAVAQTSLEYLKAMHSHILKKEAPFAVGLFAGETLEKPHFLSMSLCKQQCELEADLIESVLQIKSEIITPLAFQRGLEKKAKKQIKKVVLPESEKMKGFEGHHHHHH , readout=soluble on expression in E. coli) returns not soluble

get_value(item= ISEFDSGETMREEQPHLATTWAARGWVEEEGIGSATLGRLVRAWPRRAAVVNKADILDEWADYDTLVPDYPLEIVPFAEHPLFLAAEPHQRQRVLTGMWIGYNERVIATEQLIAEPAFDLVMHGVFPGSDDPLIRKSVQQAIVDESFHTYMHMLAIDRTRELRKISERPPQPELVTYRRLRRVLADMPEQWERDIAVLVWGAVAETCINALLALLARDATIQPMHSLITTLHLRDETAHGSIVVEVVRELYARMNEQQRRALVRCLPIALEAFAEQDLSALLLELNAAGIRGAEEIVGDLRSTAGGTRLVRDFSGARKMVEQLGLDDAVDFDFPERPDWSPHTPR , readout=soluble on expression in E. coli) returns soluble

get_value(item= MNDITQLRQNVLEKAHQEGQQCLKIATDSLDTDFKERQQQGLHDLKAKRQKELKALEQQFQVAQQQLKNQERQALLALKQDSIKELFEASLEKMTNFSKEEELAFLKQVLSKYPEQPLQVTFGEKTGQKFSSYDCAELRLAFPQLSYNQELIPQEAGFLVSLDQVDDNYLYRYLLESVLKEESSRIIDMLFSEI , readout=soluble on expression in E. coli) returns not soluble

get_value(item= MTDIGAPVTVQVAVDPPYPVVIGTGLLDELEDLLADRHKVAVVHQPGLAETAEEIRKRLAGKGVDAHRIEIPDAEAGKDLPVVGFIWEVLGRIGIGRKDALVSLGGGAATDVAGFAAATWLRGVSIVHLPTTLLGMVDAAVGGKTGINTDAGKNLVGAFHQPLAVLVDLATLQTLPRDEMICGMAEVVKAGFIADPVILDLIEADPQAALDPAGDVLPELIRRAITVKAEVVAADEKESELREILNYGHTLGHAIERRERYRWRHGAAVSVGLVFAAELARLAGRLDDATAQRHRTILSSLGLPVSYDPDALPQLLEIMAGDKKTRAGVLRFVVLDGLAKPGRMVGPDPGLLVTAYAGVCAP , readout=soluble on expression in E. coli) returns not soluble
